target: SHP-2 full length protein (Homo sapiens (Human), UniProt Q06124); experiment: SHP-2 biochemical DiFMUP pseudosubstrate-fluorogenic assay; settings: 0.2 nM SHP-2, 1 μM IRS-1 activator peptide, 50 μM DiFMUP; read-out: SHP2 IC50
pIC50: −log10 of the molar value.
observation_type: pIC50

I. NC1CC2CN(c3ncc(Sc4cccc(Cl)c4Cl)c4nccn34)CC2C1 (stereo not shown)
II. NCC1CCN(c2ncc(Sc3cccc(Cl)c3Cl)c3nccn23)CC1
III. C[C@@H]1OCC2(CCN(c3ncc(Sc4ccnc5c(-n6cncn6)cccc45)c4nccn34)CC2)[C@@H]1N
Arrange the 3 molecules from largest to smallest pIC50. Answer by writing out the labels in the requested order. III, II, I
(III: 7.74, II: 7.14, I: 6.72)

---

target: SHP-2 full length protein (Homo sapiens (Human), UniProt Q06124); assay: SHP-2 biochemical DiFMUP pseudosubstrate-fluorogenic assay; conditions: 0.2 nM SHP-2, 1 μM IRS-1 activator peptide, 50 μM DiFMUP; read-out: SHP2 IC50
pIC50: −log10 of the molar value.
observation_type: pIC50

Completed entries (count: 5):
| molecule | system_under_test | pIC50 |
| --- | --- | --- |
| C[C@@H]1OCC2(CCN(c3ncc(Sc4cccc5ncsc45)c4nccn34)CC2)[C@@H]1N [Example 95] | SHP-2 full length protein (Homo sapiens (Human), UniProt Q06124) | 8.28 |
| NC1CCCN(c2ncc(Sc3cccc(Cl)c3Cl)c3nccn23)CC1 (centres unmarked) [Example 56] | SHP-2 full length protein (Homo sapiens (Human), UniProt Q06124) | 7.12 |
| Cc1nc(N2CCC3(CCC[C@H]3N)CC2)n2ccnc2c1-c1ccc(Cl)cc1Cl [Example 26] | SHP-2 full length protein (Homo sapiens (Human), UniProt Q06124) | 7.60 |
| Cc1nc(N2CCC3(CCC[C@H]3N)CC2)n2cnnc2c1-c1cccc(Cl)c1Cl [Example 65] | SHP-2 full length protein (Homo sapiens (Human), UniProt Q06124) | 7.70 |
| Cc1nc(N2CCC3(CC2)C[C@H](O)C[C@H]3N)n2ccnc2c1-c1cccc(Cl)c1Cl [Example 34] | SHP-2 full length protein (Homo sapiens (Human), UniProt Q06124) | 8.48 |

a. C[C@@H]1OCC2(CCN(c3ncc(Sc4ccnc5c(F)cccc45)c4nccn34)CC2)[C@@H]1N [Example 122]
b. Cc1nc(N2CCC3(CCC[C@H]3N)CC2)n2ccnc2c1-c1cccnc1 [Example 22]
c. N[C@H]1c2cccnc2CC12CCN(c1ncc(Sc3cccc(Cl)c3Cl)c3nccn13)CC2 [Example 148]
List from greatest to least pIC50. Answer by writing out the labels in the requested order. a, c, b
(a: 8.04, c: 7.39, b: 5.77)

1. NCC1CC2CN(c3ncc(Sc4cccc(Cl)c4Cl)c4nccn34)CC2C1 (centres unmarked) [Example 41]
2. NC1CC2(CCN(c3ncc(Sc4cccc(Cl)c4Cl)c4nccn34)C2)C1 (centres unmarked) [Example 58]
Lower value of pIC50 belongs to which: 1 or 2 ? State the label of the item chosen. 2

---

target: SHP-2 full length protein (Homo sapiens (Human), UniProt Q06124); test: SHP-2 biochemical DiFMUP pseudosubstrate-fluorogenic assay; settings: 0.2 nM SHP-2, 1 μM IRS-1 activator peptide, 50 μM DiFMUP; read-out: SHP2 IC50
observation_type: IC50 (µM)

Completed entries (count: 3):
| structure_smiles | result_unit | IC50 |
| --- | --- | --- |
| C[C@@H](N)C1CCN(c2ncc(Sc3cccc(Cl)c3Cl)c3nccn23)CC1 | µM | 0.17 |
| Nc1nccc(Sc2cnc(N3CCC4(CCC[C@H]4N)CC3)n3ccnc23)c1Cl | µM | 0.0056 |
| Cc1nc(N2CCC3(CC2)CO[C@@H](C)[C@H]3N)n2cnnc2c1-c1cccc(Cl)c1Cl | µM | 0.0064 |

a. C[C@@H]1OCC2(CCN(c3ncc(Sc4ccnc5ccccc45)c4nccn34)CC2)[C@@H]1N
b. Cc1nc(N2CCC3(CCC[C@H]3N)CC2)n2cnnc2c1-c1cnc(N)c(Cl)c1Cl
c. Clc1cccc(Sc2cnc(N3CCC4(CCCCN4)CC3)n3ccnc23)c1Cl
d. Cc1nc(N2CCC3(CCC[C@H]3N)CC2)n2ccnc2c1-c1ccc2c(c1)OC(F)(F)O2
List from greatest to least IC50. Answer by writing out the labels in the requested order. d, c, b, a
